Target: T1, human ROR2 expressed on the cell surface (human, UniProt Q01974 34-943)
T1 construct: Endogenous ROR2 of human tumour cell lines; also called cell surface ROR2; ROR2 on tumour cell lines
T1 sequence (Q01974 34-943 limits assumed): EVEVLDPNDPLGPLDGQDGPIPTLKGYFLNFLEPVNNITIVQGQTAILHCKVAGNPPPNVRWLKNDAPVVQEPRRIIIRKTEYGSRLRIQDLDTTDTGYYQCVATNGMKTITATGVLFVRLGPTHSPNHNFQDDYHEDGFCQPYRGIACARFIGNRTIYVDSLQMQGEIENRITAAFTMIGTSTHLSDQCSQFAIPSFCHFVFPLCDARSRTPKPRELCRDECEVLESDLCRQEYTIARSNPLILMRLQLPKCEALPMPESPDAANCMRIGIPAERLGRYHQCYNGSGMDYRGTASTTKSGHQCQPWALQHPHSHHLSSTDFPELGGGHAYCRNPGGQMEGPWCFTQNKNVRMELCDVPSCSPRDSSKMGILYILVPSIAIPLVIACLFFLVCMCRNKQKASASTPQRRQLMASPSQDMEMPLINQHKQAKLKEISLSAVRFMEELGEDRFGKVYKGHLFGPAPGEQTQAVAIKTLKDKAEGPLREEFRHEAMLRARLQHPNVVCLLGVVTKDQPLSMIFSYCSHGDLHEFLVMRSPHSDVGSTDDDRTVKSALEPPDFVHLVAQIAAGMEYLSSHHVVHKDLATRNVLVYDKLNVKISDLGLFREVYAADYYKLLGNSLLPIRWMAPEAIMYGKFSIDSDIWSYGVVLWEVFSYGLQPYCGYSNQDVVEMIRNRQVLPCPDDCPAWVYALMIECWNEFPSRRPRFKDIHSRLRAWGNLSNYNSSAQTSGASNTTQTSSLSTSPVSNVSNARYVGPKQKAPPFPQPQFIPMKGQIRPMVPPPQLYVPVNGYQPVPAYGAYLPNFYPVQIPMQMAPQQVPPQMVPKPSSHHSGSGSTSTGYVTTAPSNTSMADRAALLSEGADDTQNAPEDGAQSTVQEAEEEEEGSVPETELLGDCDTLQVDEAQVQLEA
Test: flow cytometry, HTB26 (MDA-MB-231) cells (breast CA)
Parameters: unit not given here

{"binder": "ROR2-90 full length human IgG1 antibody (antibody, V domains shown, also called clone #90; antibody #90) VH: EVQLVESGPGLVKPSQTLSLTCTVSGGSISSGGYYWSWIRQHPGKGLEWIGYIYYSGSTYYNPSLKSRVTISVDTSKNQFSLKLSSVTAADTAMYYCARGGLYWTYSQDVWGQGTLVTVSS VL: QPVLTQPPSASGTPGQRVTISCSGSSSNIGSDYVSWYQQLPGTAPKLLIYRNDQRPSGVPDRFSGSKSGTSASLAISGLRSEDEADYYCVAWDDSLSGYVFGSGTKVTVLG", "binding intensity": 19}
